These measurements were taken from patent US20100292083A1.

- assayed target: T1, human IL6R (human, UniProt P08887 20-358, limits assumed)
- T1 construct: Antigen of the Biacore experiments
- T1 sequence (looked up): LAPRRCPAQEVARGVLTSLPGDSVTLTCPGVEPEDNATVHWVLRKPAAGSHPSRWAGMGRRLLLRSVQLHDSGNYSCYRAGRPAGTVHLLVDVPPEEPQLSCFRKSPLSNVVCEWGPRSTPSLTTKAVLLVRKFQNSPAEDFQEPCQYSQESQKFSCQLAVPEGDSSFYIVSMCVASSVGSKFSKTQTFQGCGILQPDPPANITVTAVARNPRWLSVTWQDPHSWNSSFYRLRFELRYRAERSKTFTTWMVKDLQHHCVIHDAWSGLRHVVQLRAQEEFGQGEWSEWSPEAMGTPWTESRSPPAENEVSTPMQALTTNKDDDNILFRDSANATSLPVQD
- method notes: SPR (Biacore), purified Nanobody
Listed here are binders together with their documented koff.
Just the number in s⁻¹, nothing appended.

Example entries and their recorded answers appear below.
* IL6R65PMP7F4 (VHH, Also expressed in E. coli and purified via IMAC) VHH: EVQLVESGGGLVQPGGSLRLSCAASGTTFKVNVMAWYRQAPGKGRELVAGIINGGSTTYADSVKGRFTISRDNAKNTLYLQMNSLRPEDTAVYYCAFVTTNSDYDLGRDYWGQGTLVTVSS | 0.000292
* IL6R65PMP7G8 (VHH, Also expressed in E. coli and purified via IMAC) VHH: EVQLVESGGGLVQPGGSLRLSCAASGSTFRINVMAWYRQAPGKGRELVAGVINDGSTTYADSVKGRFTISRDNAKNTLYLQMNSLRPEDTAVYYCAFVTTNSDYDLGRDYWGQGTLVTVSS | 0.000333
* IL6R65PMP7G7 (VHH, Also expressed in E. coli and purified via IMAC) VHH: EVQLVESGGGLVQPGGSLRLSCAASGTTFKINIMAWYRQAPGKGRELVAGVITGGNTTYADSVKGRFTISRDNAKNTLYLQMNSLRPEDTAVYYCAFVTTNSDYDLGRDYWGQGTLVTVSS | 0.00031
* IL6R65PMP7C4 (VHH, Also expressed in E. coli and purified via IMAC) VHH: EVQLVESGGGLVQPGGSLRLSCAASGTTFRINVMAWYRQAPGKGRELVAGIITNGSTSYADSVKGRFTISRDNAKNTLYLQMNSLRPEDTAVYYCAFVTTNSDYDLGRDYWGQGTLVTVSS | 0.000177
* Nanobody IL6R65 (VHH, also called ILR65) VHH: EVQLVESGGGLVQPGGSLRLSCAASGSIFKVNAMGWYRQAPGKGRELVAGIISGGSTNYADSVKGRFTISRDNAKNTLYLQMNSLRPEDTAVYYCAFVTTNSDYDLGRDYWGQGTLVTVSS | 0.00234

Switching to the query record.
[ask] koff for IL6R65PMP7D6 (VHH, Also expressed in E. coli and purified via IMAC) VHH: EVQLVESGGGLVQPGGSLRLSCAASGSIFRVNVMAWYRQAPGKGRELVAAVINGGTTTYADSVKGRFTISRDNAKNTLYLQMNSLRPEDTAVYYCAFVTTNSDYDLGRDYWGQGTLVTVSS ?
[reply] 0.000279
